- System: Pseudomonas aeruginosa
- TEST_SUMMARY: Antibacterial activity against Pseudomonas aeruginosa ATCC 27853 after 24 hrs by microtitre broth dilution method
- Format: functional
- ASSAY_CONTEXT: ATCC 27853, 24 h
Exercise: state measured MIC for each of the compounds provided.
For clarity, give the value followed by its unit.

Req: Specify MIC for `NC[C@H]1O[C@H](O[C@H]2[C@H](O)[C@@H](O[C@H]3O[C@H](CO)[C@@H](O)[C@H](N)[C@H]3O)[C@H](N)C[C@@H]2N)[C@H](N)C[C@@H]1O` and stop.
Resp: 0.5 µg/mL

Req: Specify MIC for `COc1c(N2C[C@@H]3CCCN(CCCCCCCCCCCCO[C@H]4[C@@H](O[C@@H]5[C@@H](O)[C@H](O[C@H]6O[C@H](CN)[C@@H](O)C[C@H]6N)[C@@H](N)C[C@H]5N)O[C@H](CO)[C@@H](O)[C@@H]4N)[C@@H]3C2)c(F)cc2c(=O)c(C(=O)O)cn(C3CC3)c12.Cl.Cl.Cl.Cl.Cl` and stop.
Resp: 16 µg/mL

Req: Specify MIC for `O=C(O)c1cn(C2CC2)c2cc(N3CCNCC3)c(F)cc2c1=O` and stop.
Resp: 1 µg/mL

Req: Specify MIC for `COc1c(N2C[C@@H]3CCCN(CCCCCCCCCCCCOC[C@H]4O[C@H](O[C@@H]5[C@@H](O)[C@H](O[C@H]6O[C@H](CN)[C@@H](O)C[C@H]6N)[C@@H](N)C[C@H]5N)[C@H](O)[C@@H](N)[C@@H]4O)[C@@H]3C2)c(F)cc2c(=O)c(C(=O)O)cn(C3CC3)c12.Cl.Cl.Cl.Cl.Cl` and stop.
Resp: 64 µg/mL
